Entries and their measured 1τ follow.
assay-protocol: Luminescence lifetime by TCSPC (Example 1)
Assay type: physicochemical
condition: Ethyl Acetate (6.02); TCSPC 370 nm pulsed LED

CCCCCCCCn1c(=O)c2c(-c3ccccc3)c3cc4c(-c5ccccc5)c5c(=O)n(CCCCCCCC)c(=O)c5c(-c5ccccc5)c4cc3c(-c3ccccc3)c2c1=O : 3.12 ns
CCCCCCOc1ccc(-n2c(=O)c3cc4cc5c(-c6ccc(C#N)cc6)c6c(=O)n(-c7ccc(OCCCCCC)cc7)c(=O)c6cc5cc4c(-c4ccc(C#N)cc4)c3c2=O)cc1 : <0.20 ns
CCCCCCCCn1c(=O)c2cc3cc4c(-c5ccccc5)c5c(=O)n(CCCCCCCC)c(=O)c5cc4cc3c(-c3ccccc3)c2c1=O : 6.90 ns

[Q] What value of 1τ has been recorded for this entry: "CCCCCCOc1ccc(-n2c(=O)c3cc4cc5c(-c6ccccc6)c6c(=O)n(-c7ccc(OCCCCCC)cc7)c(=O)c6cc5cc4c(-c4ccccc4)c3c2=O)cc1"
[A] <0.20 ns

====

assay-protocol: Luminescence lifetime by TCSPC (Example 1)
Assay type: physicochemical
condition: CHCl3 (4.8); TCSPC 370 nm pulsed LED
Listed next: entries and their corresponding 1τ.
Give the quantity in ns, number only.

These recorded examples may help you get a feel for the data.
CCCCCCOc1ccc(-n2c(=O)c3cc4cc5c(-c6ccccc6)c6c(=O)n(-c7ccc(OCCCCCC)cc7)c(=O)c6cc5cc4c(-c4ccccc4)c3c2=O)cc1 [DP] : 0.38
CCCCCCCCn1c(=O)c2cc3cc4c(-c5ccccc5)c5c(=O)n(CCCCCCCC)c(=O)c5cc4cc3c(-c3ccccc3)c2c1=O [DPO] : 5.79
CCCCCCOc1ccc(-n2c(=O)c3cc4cc5c(-c6ccc(OC)cc6)c6c(=O)n(-c7ccc(OCCCCCC)cc7)c(=O)c6cc5cc4c(-c4ccc(OC)cc4)c3c2=O)cc1 [DM] : 0.59

[Q] Tell me the measured 1τ of CCCCCCCCn1c(=O)c2c(-c3ccccc3)c3cc4c(-c5ccccc5)c5c(=O)n(CCCCCCCC)c(=O)c5c(-c5ccccc5)c4cc3c(-c3ccccc3)c2c1=O [TPO] , please.
[A] 3.54

[Q] Endpoint output: 1τ of CCCCCCOc1ccc(-n2c(=O)c3cc4cc5c(-c6ccc(C#N)cc6)c6c(=O)n(-c7ccc(OCCCCCC)cc7)c(=O)c6cc5cc4c(-c4ccc(C#N)cc4)c3c2=O)cc1 [DC] . Value?
[A] 0.27

====

assay-protocol: Absorption spectra of anthracene diimides in solvents of increasing polarity (Example 1)
Assay type: physicochemical
condition: Ethyl Acetate (6.02)
experimental-endpoint: Abs. λmax (nm)
Unit nm implied. Number only.

These solved cases illustrate the format of a correct answer.
CCCCCCOc1ccc(-n2c(=O)c3cc4cc5c(-c6ccc(C#N)cc6)c6c(=O)n(-c7ccc(OCCCCCC)cc7)c(=O)c6cc5cc4c(-c4ccc(C#N)cc4)c3c2=O)cc1 [DC] : 418
CCCCCCOc1ccc(-n2c(=O)c3cc4cc5c(-c6ccccc6)c6c(=O)n(-c7ccc(OCCCCCC)cc7)c(=O)c6cc5cc4c(-c4ccccc4)c3c2=O)cc1 [DP] : 421
CCCCCCCCn1c(=O)c2c(-c3ccccc3)c3cc4c(-c5ccccc5)c5c(=O)n(CCCCCCCC)c(=O)c5c(-c5ccccc5)c4cc3c(-c3ccccc3)c2c1=O [TPO] : 426
CCCCCCCCn1c(=O)c2cc3cc4c(-c5ccccc5)c5c(=O)n(CCCCCCCC)c(=O)c5cc4cc3c(-c3ccccc3)c2c1=O [DPO] : 420
CCCCCCOc1ccc(-n2c(=O)c3c(-c4ccccc4)c4cc5c(-c6ccccc6)c6c(=O)n(-c7ccc(OCCCCCC)cc7)c(=O)c6c(-c6ccccc6)c5cc4c(-c4ccccc4)c3c2=O)cc1 [TP] : 428

[Q] Field request: Abs. λmax | item: CCCCCCOc1ccc(-n2c(=O)c3cc4cc5c(-c6ccc(OC)cc6)c6c(=O)n(-c7ccc(OCCCCCC)cc7)c(=O)c6cc5cc4c(-c4ccc(OC)cc4)c3c2=O)cc1 [DM]
[A] 425

Data origin, for the record: patent US20080242870A1
